assay: inhibitors of Bluetongue virus cytopathic effect, confirmation, arbovirus, BSR cells (AID 1250); settings: BSR cells, Bluetongue virus CPE, ATP luminescence, 72 h; at 20 µM (top of the series)
So I've got a bunch of molecules here, and I need their CPE inhibition values.
One number for each entry, in %.

O=C(O)CCn1cc(/C=C/C(=O)c2ccc(Cl)cc2)c(-c2ccc(Br)cc2)n1 : 13.8
CCOc1ccc(-c2csc(NC(=O)CSCC(=O)O)n2)c2ccccc12 : 17.7
CCCCn1c(SCC(=O)N2CCN(c3ccccc3)CC2)nc2ccsc2c1=O : 6.77
COC(=O)c1c(SCc2ccc(C#N)cc2)nc(=O)[nH]c1C : 4.66

Okay, here is my list. What is CPE inhibition for each of these?
1. Cc1cccc(/C(N)=N/OC(=O)COc2ccc(Cl)cc2)c1
2. Cc1ccc2nc(-c3ccc(Br)o3)oc(=O)c2c1
3. CCSc1nnc(NC(=O)CSc2nnc(Cc3cccn3C)n2-c2ccc(F)cc2)s1
4. O=C(O)c1cccc(-n2cccc2/C=C2/NC(=O)N(c3ccc(Cl)cc3)C2=O)c1
5. CCOC(=O)c1ccc(NC(=O)CC2S/C(=N/N=C/c3c[nH]c4ccccc34)NC2=O)cc1 (stereo unspecified)
6. C/C(=N\NS(=O)(=O)c1ccccc1)c1cccc(NC(=O)c2cccc(Cl)c2)c1

[5.92, 21.3, 13.9, 10.4, 11.7, 15.9]

Okay, here is my list. What is CPE inhibition for each of these?
1. Cc1ccc2c(c1)c(Sc1ccccc1)c(CC(=O)O)n2C
2. COc1cc2c(C(=O)O)c(C)n(CC(C)C)c2c2ccccc12
3. CCOc1ccc(-n2c(C)cc(/C=C3/C(=N)N4C(=NC3=O)SN=C4S(C)(=O)=O)c2C)cc1
4. COC(=O)c1ccc(NC(=O)c2ccccc2NS(C)(=O)=O)cc1
5. Cc1ccc(C2CC(=O)c3cnn(-c4nc(C)cc(C)n4)c3C2)cc1 (stereo unspecified)
6. CCCc1cc2c(OC(=O)CC)c(-c3ccc(C(=O)OCC)o3)c(=O)oc2cc1OC
7. CCOC(=O)CSc1nc2c(sc(=S)n2-c2ccc(OCC)cc2)c(=O)[nH]1

[-0.49, 28.1, 25.5, 22.4, 5.7, 19.6, 19.1]

Okay, here is my list. What is CPE inhibition for each of these?
1. Cc1cc(C)c(NC(=O)c2oc3ccccc3c2COc2ccccc2)c(C)c1
2. COCCn1c(SCc2nc3scc(-c4ccc(Cl)cc4)c3c(=O)[nH]2)nnc1-c1cccc(C)c1
3. CN1CCN(c2ccc(/C=C3\C(=O)NC(=S)N(c4cccc(Br)c4)C3=O)o2)CC1
4. O=C(Nc1nc(-c2ccccc2)cs1)c1ccc(=O)[nH]c1

[5.41, 17.4, 14.7, 12]

---

So I've got a bunch of molecules here, and I need their CPE inhibition values.
experiment: inhibitors of Bluetongue virus cytopathic effect, confirmation, arbovirus, BSR cells (AID 1250); conditions: BSR cells, Bluetongue virus CPE, ATP luminescence, 72 h; at 20 µM (top of the series)
Numbers only, in %.

Examples with answers:
O=C(Nc1sc2c(c1C(=O)O)CCCC2)c1cccs1 : 25.3
CCc1ccc(CCC(=O)Nc2ccccc2C(=O)O)o1 : 21.9
COCCN1C(=O)/C(=C/c2ccc(Oc3ccc([N+](=O)[O-])cn3)c(OC)c2)SC1=Nc1ccccc1 : 25.6

Okay, here is my list. What is CPE inhibition for each of these?
1. O=C(O)c1csc(N/N=C/c2ccc(Br)cc2)n1
2. CN(C)/N=C/c1ccc(P(c2ccc(/C=N/N(C)C)o2)c2ccc(/C=N/N(C)C)o2)o1

[8.09, 10.4]
